experiment: RP, Phenomenex Synergi Hydro-RP, 150 × 2 mm, 4 µm, 30 °C, 0.5 mL/min, estimated dead time 0.6 min; A: water + 0.1% formic acid, pH 3; B: acetonitrile + 0.1% formic acid, pH 3; gradient (min/%B) 0/5 1/5 35/45 40/100 45/100; conditions: stereoisomer not certain
Binary label based on LC retention time with cut-off 20 min: below gives true (1), not below gives false (0).

{"compound": "O=C(CCc1ccc(O)cc1)c1c(O)cc(O)cc1O", "class-assignment": "false (0)"}
{"compound": "COc1cc(-c2oc3cc(O)cc(O)c3c(=O)c2O)ccc1O", "class-assignment": "false (0)"}

q: Say whether its LC retention time is strictly beneath 20 min. Entry: O=c1c(O)c(-c2ccc(OS(=O)(=O)O)c(O)c2)oc2cc(O)cc(O)c12 [Quercetin 4-O-sulfate]
a: false (0)

q: Lab note: LC retention time threshold 20 min. Does this compound come in strictly under it? O=C(O)CNC(=O)c1ccccc1
a: true (1)

q: Does the reported LC retention time of COc1cc(C=O)ccc1O stay below 20 min?
a: true (1)

q: Does the reported LC retention time of the following compound sit strictly below 20 min? CC1OC(OC2C(Oc3cc(O)c4c(c3)OC(c3ccc(O)cc3)CC4=O)OC(CO)C(O)C2O)C(O)C(O)C1O (stereo unspecified)
a: true (1)

---

test: RP, Merck LiChrospher RP-18, 250 × 4 mm, 5 µm, 35 °C, 0.3 mL/min, estimated dead time 6.7 min; A: water + 0.5% formic acid; B: acetonitrile + 0.5% formic acid; gradient (min/%B) 0/5 10/5 30/15 45/20 65/20 95/54 110/63 115/5 135/5; details: stereoisomer not certain
In plain terms, low LC retention time, meaning strictly below 90 min, gives class 1, and everything else gives class 0.

Reference set, count: 5
{"compound": "COc1cc(-c2oc3cc(O)cc(O)c3c(=O)c2O)ccc1O [Isorhamnetin]", "class-assignment": "class 0"}
{"compound": "COc1cc(-c2oc3cc(O)cc(O)c3c(=O)c2OC2OC(COC3OC(C)C(O)C(O)C3O)C(O)C(O)C2O)ccc1O (configuration not stated) [Isorhamnetin-3-O-rutinoside]", "class-assignment": "class 1"}
{"compound": "O=c1cc(-c2ccc(O)cc2)oc2cc(O)cc(O)c12 [Apigenin]", "class-assignment": "class 0"}
{"compound": "COc1cc(C=O)ccc1O [Vanillin]", "class-assignment": "class 1"}
{"compound": "CC1OC(OCC2OC(Oc3cc4c(O)cc(O)cc4[o+]c3-c3ccc(O)c(O)c3)C(O)C(O)C2O)C(O)C(O)C1O (configuration not stated) [Cyanidin-3-O-rutinoside]", "class-assignment": "class 1"}

q: LC retention time strictly < 90 min for this compound? COc1cc(C=O)cc(OC)c1O [Syringaldehyde]
a: class 1

---

// reported LC retention time for each item listed
assay: RP, Waters ACQUITY UPLC BEH Shield RP18, 100 × 2.1 mm, 1.7 µm, 30 °C, 0.6 mL/min, estimated dead time 0.37 min; A: water + 0.1% formic acid, pH 3; B: acetonitrile + 0.1% formic acid, pH 3; gradient (min/%B) 0/0 2/0 7/10 22/95 22.1/0 26/0; conditions: stereoisomer not certain
Could you kindly put the unit after your number?

{"compound": "O=C(O)Cc1ccc(O)cc1 [4-Hydroxyphenylacetic acid]", "LC retention time": "7.43 min"}
{"compound": "Cc1c(C)c2c(c(C)c1O)CCC(C)(CCCC(C)CCCC(C)CCCC(C)C)O2 (stereo unspecified)", "LC retention time": "18.1 min"}
{"compound": "O=c1c(-c2ccc(O)cc2)coc2cc(O)cc(O)c12", "LC retention time": "16.1 min"}
{"compound": "COc1cc(C=CC(=O)CC(=O)C=Cc2ccc(O)c(OC)c2)ccc1O", "LC retention time": "18.2 min"}

q: Given the entry CC1OC(OC2C(O)C(OCCc3ccc(O)c(O)c3)OC(CO)C2OC(=O)C=Cc2ccc(O)c(O)c2)C(O)C(O)C1O (stereo unspecified) [Verbascoside] , report its measured LC retention time.
a: 12.6 min

q: Using the record for O=c1cc(-c2ccc(O)cc2)oc2cc(OC3OC(CO)C(O)C(O)C3O)cc(O)c12 (stereo unspecified) [Apigenin 7-O-glucoside] , report its LC retention time.
a: 13.5 min

From: the RepoRT retention time repository (doi:10.1016/j.foodchem.2021.129757)
